- Test system: CAL-120 (Breast Carcinoma)
- Measurement notes: Bliss excess, mean over the matrix (fraction); higher = more synergy
Result type: Bliss excess
Field format: numeric only.

Use the examples below as a reference point.
{"Compound": "COc1cc2ncnc(Nc3ccc(F)c(Cl)c3)c2cc1OCCCN1CCOCC1 [Gefitinib] + CC(C)n1c(=O)n(C)c2cnc3cc(F)c(-c4ccc(OCCCN5CCCCC5)nc4)cc3c21 [AZD1390] (first compound max 10 µM, 7x7, partner max 0.3 µM)", "Result type": "Bliss excess", "Reported": -0.0446}
{"Compound": "COc1cccc(OCCCN)c1-c1cc(Nc2cnc(C#N)cn2)n[nH]1 [Prexasertib] + CN(C)CCCOc1ccc(-c2ccc3ncc4c(c3c2)n(C2CCOCC2)c(=O)n4C)cn1 [AZD0156] (first compound max 1 µM, 7x7, partner max 1 µM)", "Result type": "Bliss excess", "Reported": 0.0088}
{"Compound": "CC1(C)CCC(CN2CCN(c3ccc(C(=O)NS(=O)(=O)c4ccc(NCC5CCOCC5)c([N+](=O)[O-])c4)c(Oc4cnc5[nH]ccc5c4)c3)CC2)=C(c2ccc(Cl)cc2)C1 [Venetoclax] + CN(C)CCCOc1ccc(-c2ccc3ncc4c(c3c2)n(C2CCOCC2)c(=O)n4C)cn1 [AZD0156] (first compound max 1 µM, 7x7, partner max 1 µM)", "Result type": "Bliss excess", "Reported": -0.0307}
{"Compound": "COc1nnc2ccc(N3CCC(c4ccc(OCCN5CCN(C)C(=O)[C@H]5C)cc4)CC3)nn12 [AZD5153] + CN(CC[C@H](CSC1=CC=CC=C1)NC2=C(C=C(C=C2)S(=O)(=O)NC(=O)C3=CC=C(C=C3)N4CCC(CC4)[C@H](C5=CC=CC=C5C6=CC=C(C=C6)Cl)O)S(=O)(=O)C(F)(F)F)CCO [AZD4320] (first compound max 1 µM, 7x7, partner max 1 µM)", "Result type": "Bliss excess", "Reported": 0.0415}
{"Compound": "COc1nnc2ccc(N3CCC(c4ccc(OCCN5CCN(C)C(=O)[C@H]5C)cc4)CC3)nn12 [AZD5153] + CCN(CCO)CCCOc1ccc2c(Nc3cc(CC(=O)Nc4cccc(F)c4)[nH]n3)ncnc2c1 [AZD2811] (first compound max 1 µM, 7x7, partner max 1 µM)", "Result type": "Bliss excess", "Reported": 0.0045}

State the recorded Bliss excess for this entry: CC1(C)CCC(CN2CCN(c3ccc(C(=O)NS(=O)(=O)c4ccc(NCC5CCOCC5)c([N+](=O)[O-])c4)c(Oc4cnc5[nH]ccc5c4)c3)CC2)=C(c2ccc(Cl)cc2)C1 [Venetoclax] + CCN(CCO)CCCOc1ccc2c(Nc3cc(CC(=O)Nc4cccc(F)c4)[nH]n3)ncnc2c1 [AZD2811] (first compound max 1 µM, 7x7, partner max 1 µM)
-0.014

State the recorded Bliss excess for this entry: Cc1cc2ncnn2cc1Nc1ncc2c(n1)n(C1CCOCC1)c(=O)n2C [AZD7648] + CCN(CCO)CCCOc1ccc2c(Nc3cc(CC(=O)Nc4cccc(F)c4)[nH]n3)ncnc2c1 [AZD2811] (first compound max 10 µM, 7x7, partner max 1 µM)
-0.0528

State the recorded Bliss excess for this entry: NC1(C(=O)N[C@@H](CCO)c2ccc(Cl)cc2)CCN(c2ncnc3[nH]ccc23)CC1 [Capivasertib] + Cn1cnc2c(F)c(Nc3ccc(Br)cc3Cl)c(C(=O)NOCCO)cc21 [Selumetinib] (first compound max 10 µM, 7x7, partner max 10 µM)
0.0219

State the recorded Bliss excess for this entry: Cc1c2c(nn1C)CSCc1cc(n(C)n1)CSc1cc(c3ccccc3c1)OCCCc1c(C(=O)O)n(C)c3c-2c(Cl)ccc13 [AZD5991] + CC1(C)CCC(CN2CCN(c3ccc(C(=O)NS(=O)(=O)c4ccc(NCC5CCOCC5)c([N+](=O)[O-])c4)c(Oc4cnc5[nH]ccc5c4)c3)CC2)=C(c2ccc(Cl)cc2)C1 [Venetoclax] (first compound max 1 µM, 7x7, partner max 1 µM)
-0.0284

###

Listed here: items and their measured combination Emax.
- Tested on: LXF-289 (Lung Adenocarcinoma)
- Measurement notes: combination Emax (second highest fraction inhibited in the dose matrix, 72 h); higher = more inhibition; extreme values may be limits of the assay

Use the examples below as a reference point.
{"Molecule": "Cc1c2c(nn1C)CSCc1cc(n(C)n1)CSc1cc(c3ccccc3c1)OCCCc1c(C(=O)O)n(C)c3c-2c(Cl)ccc13 [AZD5991] + CCN(CCO)CCCOc1ccc2c(Nc3cc(CC(=O)Nc4cccc(F)c4)[nH]n3)ncnc2c1 [AZD2811] (first compound max 1 µM, 7x7, partner max 1 µM)", "Experimental system": "LXF-289 (Lung Adenocarcinoma)", "combination Emax": 0.864}
{"Molecule": "CC(=O)c1c(C)c2cnc(Nc3ccc(N4CCNCC4)cn3)nc2n(C2CCCC2)c1=O [Palbociclib] + CC1(C)CCC(CN2CCN(c3ccc(C(=O)NS(=O)(=O)c4ccc(NCC5CCOCC5)c([N+](=O)[O-])c4)c(Oc4cnc5[nH]ccc5c4)c3)CC2)=C(c2ccc(Cl)cc2)C1 [Venetoclax] (first compound max 10 µM, 7x7, partner max 1 µM)", "Experimental system": "LXF-289 (Lung Adenocarcinoma)", "combination Emax": 0.225}

Then this molecule:
Lab note: need combination Emax with LXF-289 (Lung Adenocarcinoma) for entry COc1cccc(OCCCN)c1-c1cc(Nc2cnc(C#N)cn2)n[nH]1 [Prexasertib] + C=CCn1c(=O)c2cnc(Nc3ccc(N4CCN(C)CC4)cc3)nc2n1-c1cccc(C(C)(C)O)n1 [AZD1775] (first compound max 1 µM, partner max 1 µM) , please look it up.
0.834

###

- Test system: RKN (Other Solid Carcinomas)
- Measurement notes: Bliss excess, mean over the matrix (fraction); higher = more synergy
Kind request: treat -0.06 as inclusive, so Bliss excess at -0.06 or higher is fulfilled, anything lower is not fulfilled.

The examples below pair each entry with its known result.
{"Compound": "Cc1c2c(nn1C)CSCc1cc(n(C)n1)CSc1cc(c3ccccc3c1)OCCCc1c(C(=O)O)n(C)c3c-2c(Cl)ccc13 [AZD5991] + Cn1cnc2c(F)c(Nc3ccc(Br)cc3Cl)c(C(=O)NOCCO)cc21 [Selumetinib] (first compound max 1 µM, 7x7, partner max 3 µM)", "Label class": "fulfilled"}
{"Compound": "COc1nnc2ccc(N3CCC(c4ccc(OCCN5CCN(C)C(=O)[C@H]5C)cc4)CC3)nn12 [AZD5153] + C=CCn1c(=O)c2cnc(Nc3ccc(N4CCN(C)CC4)cc3)nc2n1-c1cccc(C(C)(C)O)n1 [AZD1775] (first compound max 1 µM, partner max 1 µM)", "Label class": "not fulfilled"}
{"Compound": "COc1cccc(OCCCN)c1-c1cc(Nc2cnc(C#N)cn2)n[nH]1 [Prexasertib] + CN(C)CCCOc1ccc(-c2ccc3ncc4c(c3c2)n(C2CCOCC2)c(=O)n4C)cn1 [AZD0156] (first compound max 1 µM, 7x7, partner max 1 µM)", "Label class": "fulfilled"}
{"Compound": "C[C@@H](Oc1cc(-c2cnn(C3CCNCC3)c2)cnc1N)c1c(Cl)ccc(F)c1Cl [Crizotinib] + Cn1cnc2c(F)c(Nc3ccc(Br)cc3Cl)c(C(=O)NOCCO)cc21 [Selumetinib] (first compound max 10 µM, 7x7, partner max 10 µM)", "Label class": "fulfilled"}
{"Compound": "CCc1c2c(nc3ccc(O)cc13)-c1cc3c(c(=O)n1C2)COC(=O)[C@]3(O)CC [SN-38] + O=C(c1cc(Cc2n[nH]c(=O)c3ccccc23)ccc1F)N1CCN(C(=O)C2CC2)CC1 [Olaparib] (first compound max 0.3 µM, 7x7, partner max 10 µM)", "Label class": "fulfilled"}
{"Compound": "CC1(C)CCC(CN2CCN(c3ccc(C(=O)NS(=O)(=O)c4ccc(NCC5CCOCC5)c([N+](=O)[O-])c4)c(Oc4cnc5[nH]ccc5c4)c3)CC2)=C(c2ccc(Cl)cc2)C1 [Venetoclax] + Cc1cc2ncnn2cc1Nc1ncc2c(n1)n(C1CCOCC1)c(=O)n2C [AZD7648] (first compound max 1 µM, 7x7, partner max 10 µM)", "Label class": "not fulfilled"}

For the next question, use this compound.
For this compound, is measured Bliss excess -0.06 or higher? C[C@@H](c1ccc2nccn2c1)n1nnc2ncc(-c3cnn(C)c3)nc21 [Savolitinib] + Cc1c2c(nn1C)CSCc1cc(n(C)n1)CSc1cc(c3ccccc3c1)OCCCc1c(C(=O)O)n(C)c3c-2c(Cl)ccc13 [AZD5991] (first compound max 1 µM, 7x7, partner max 1 µM)
not fulfilled

###

- Tested on: NCI-H446 (Small Cell Lung Carcinoma)
- Measurement notes: combination Emax (second highest fraction inhibited in the dose matrix, 72 h); higher = more inhibition; extreme values may be limits of the assay
Kind request: treat 0.7 as inclusive, so combination Emax at 0.7 or higher is met, anything lower is not met.

{"Compound": "C[C@@H]1COCCN1c1cc(C2([S@](C)(=N)=O)CC2)nc(-c2ccnc3[nH]ccc23)n1 [AZD6738] + O=C(c1cc(Cc2n[nH]c(=O)c3ccccc23)ccc1F)N1CCN(C(=O)C2CC2)CC1 [Olaparib] (first compound max 10 µM, 7x7, partner max 10 µM)", "Label class": "met"}

For the next question, use this compound.
For this compound, is measured combination Emax 0.7 or higher? Cc1cc2ncnn2cc1Nc1ncc2c(n1)n(C1CCOCC1)c(=O)n2C [AZD7648] + O=C(c1cc(Cc2n[nH]c(=O)c3ccccc23)ccc1F)N1CCN(C(=O)C2CC2)CC1 [Olaparib] (first compound max 10 µM, 7x7, partner max 10 µM)
not met
